Values compiled from PubChem BioAssay.

Would you mind telling me the reported z-score of each entry?
assay: A549 cell viability effects, profiling panel, calcein-AM fluorescence, 48 h, basal (AID 1162); conditions: higher = more signal; further: test concentration not given here

Let me know recorded z-score for C=CC[C@@]1(C(=O)NCCN2CCOCC2)N=C(c2ccc(OCCCO)cc2)O[C@@H]1c1ccccc1N=[N+]=[N-] , thanks. 0.391

Find the measured z-score of CC(C)C(O)C1C=CC2C(=O)NC(=O)C2N1Nc1ccc(Cl)cc1Cl (centres undefined) and report it. -1.06

Given the compound O=C1N(Cc2ccccc2)c2ccccc2[C@@H]2OC(c3ccc(OCCCO)cc3)=N[C@]12CCS(=O)(=O)c1ccccc1 , write its reported z-score. -0.221

For the compound O=C1c2ccccc2[C@](Cc2ccccc2I)(C(=O)NCCN2CCOCC2)[C@H](c2ccc(CO)cc2)N1Cc1ccccc1Cl , give its reported z-score. 0.537

----------
assay: basal HepG2 mitochondrial membrane potential changes, profiling panel, cell-based, JC-1 fluorescence, 24 h, 100 nL compound (AID 1167); details: higher = more signal; further: test concentration not given here
Kindly supply the reported z-score values for the records listed here.

Complete the entry with z-score for C=CCOC(=O)[C@H]1[C@@H]2C(=O)O[C@@H](c3ccccc3)[C@@H](c3ccccc3)N2[C@@H](c2ccc(OCCOC(=O)[C@@H]3C[C@@H]4C(=O)N[C@@H](CCCCNC(C)=O)C(=O)N4[C@@H]3c3ccc(O)cc3)cc2)[C@]12C(=O)Nc1ccccc12 -1.7

In one line, give reported z-score of the entry Cc1ccc(S[C@]2(C(=O)NCCCN(C)C)CC(=O)N(Cc3ccccc3C(F)(F)F)[C@@H]2c2ccc(CO)cc2)cc1 . 1.47

Determine its reported z-score: CC(C)C(CO)N1C(=O)[C@@H]2C3C(=O)OCCC/C=C\[C@H]3OC23C=CCN(CCN2CCOCC2)C(=O)[C@@H]13 (stereo partly specified) -0.936

Let me know recorded z-score for COC(=O)[C@@]1(Cc2ccc(F)cc2)[C@H]2c3cc(C(=O)N(C)C)n(Cc4ccccc4)c3C[C@H]2CN1C(=O)c1ccccc1 , thanks. 0.746

Give the value of z-score reported for the following: CC(C)[Si]1(C(C)C)O[C@@H](c2ccccc2)c2cc(-c3ccc(-c4ccc(Cl)c(Cl)c4)o3)nc(-c3ccccc3)c21 -1.87

Given the molecule CC(C)C[C@@H]1NC(=O)[C@@H]2C[C@H](C(=O)NCc3ccc(F)cc3)[C@H](c3cccc(OCCO)c3)N2C1=O , write its reported z-score. 1.9

----------
biological target: Dickkopf-related protein 1 (Homo sapiens); assay: DKK1 binders on small-molecule microarrays, primary screen, biochemical, small-molecule microarray, 635 nm fluorescence scan (AID 1106); details: DKK1 binding, higher = more signal;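 further: score merges emission near 667 nm with signal to noise over three replicate slides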
Task for the reader: assign each of the following compounds its reported composite z-score.
Keep the answer to the number alone.

For CCOC(=O)C[C@H]1[C@H](OC(=O)c2ccc(C(=O)c3ccccc3)cc2)[C@@H](NC(=O)c2ccc3ccccc3n2)c2cc(OCCCO)ccc2N1C(=O)c1ccccc1 , write its composite z-score. 0.271

Give the measured composite z-score for COC(=O)[C@@]1(Cc2ccc(OC)cc2)[C@H]2c3cc(C(=O)N(C)C)n(C)c3C[C@H]2CN1C(=O)c1ccccc1 -0.105

Find the measured composite z-score of CC(C)(C)OC(=O)CC[C@]1(C(=O)N2CCOCC2)N=C(c2ccc(OCCCO)cc2)O[C@H]1c1ccccc1N=[N+]=[N-] and report it. 0.283

Answer with the recorded composite z-score for the compound listed here: CCOC(=O)C[C@H]1[C@H](OC(=O)c2cc3ccccc3oc2=O)[C@@H](NC(=O)c2ccccc2)c2cc(OCCCO)ccc2N1C(=O)c1ccc2ccccc2n1 0.425

Indicate its recorded composite z-score; the compound in question is [N-]=[N+]=Nc1ccccc1[C@H]1OC(c2ccc(OCCCO)cc2)=N[C@@]1(CCS(=O)(=O)c1ccccc1)C(N)=O 0.0979

For the compound COC(=O)C(CC#Cc1ccc2c(c1)[C@]1(C(=O)N2)[C@H](c2ccc(OCCO)cc2)N2[C@H](c3ccccc3)[C@H](c3ccccc3)OC(=O)[C@H]2[C@@H]1C(=O)N1CCc2cc(OC)c(OC)cc2C1)C(=O)OC , give its measured composite z-score value. 0.506

----------
assay: MM1S myeloma cell viability, profiling panel, resazurin fluorescence, basal, 24 h, PK04 Diversity Set (AID 1174); details: higher = more signal, called active from +8 up or from −8 down;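 further: MM1S multiple myeloma cell line; test concentration not given here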
PROPERTY_NAME: z-score
Number only, no unit.

Give the reported value of z-score for this record: COc1cc2c(cc1OC)CN(C(=O)[C@H]1[C@@H]3C(=O)O[C@@H](c4ccccc4)[C@@H](c4ccccc4)N3[C@@H](c3ccc(O)cc3)[C@]13C(=O)Nc1ccccc13)CC2 -0.426

Determine from records and report z-score for COc1ccc([Si](C)(C)[C@@H]2[C@@H](CC(=O)N3CCC[C@H]3CO)O[C@]3(C(=O)N(c4ccccc4)c4ccccc43)[C@H]2C)cc1 0.315

# return recorded z-score for input CNS(=O)(=O)c1ccc(C)cc1 0.68

Find the measured z-score of O=C1NC(=O)C2C1C=CC(C(O)c1cccs1)N2Nc1ccc(Cl)cc1Cl (stereo not drawn) and report it. -0.597

Identify measured z-score associated with O=C1C2C=CC(C(O)c3cccc4ccccc34)N(Nc3ccccc3F)C2C(=O)N1c1ccccc1 (stereo not drawn) -0.186

Assign z-score to the following record: C=C[C@H](C)[C@@H](OC(=O)Nc1ccc(OC)cc1)c1ccc(O)c2ccccc12 -4.56

Query z-score for CC1(C)[C@@H]2CC(C(O)C3C=CC4C(=O)N(c5ccccc5)C(=O)C4N3Nc3ccc([N+](=O)[O-])cc3)=C[C@H]1C2 (stereo partly drawn) 0.218

Give the value of z-score reported for the following: CC#CC(=O)Oc1ccccc1C=CC(=O)OCC 0.302

----------
tested on: Human papillomavirus type 1a E7 protein (residues 1-88); assay: HPV1a E7 small-molecule binders, primary screen, biochemical, small-molecule microarray, residues 1-88, 635 nm (AID 1129); details: small-molecule microarray binding, fluorescence 635 nm; higher = more signal
PROPERTY_NAME: composite z-score
Reply: number alone, nothing else.

State, for Human papillomavirus type 1a E7 protein (residues 1-88), measured composite z-score of the molecule listed here: COCCOC(=O)N1C(=O)[C@@]2(c3ccccc31)[C@H](c1ccccc1OCCO)N1[C@H](c3ccccc3)[C@H](c3ccccc3)OC(=O)[C@H]1[C@@H]2C(=O)N1CCN(c2ncccn2)CC1 1.15

Recall the reported composite z-score of CCOC(=O)C[C@H]1[C@H](OC(=O)c2ccc(-c3ccccc3)cc2)[C@@H](NC(=O)Cc2ccc(OC)cc2)c2cc(OCCCO)ccc2N1C(=O)c1ccccc1 on Human papillomavirus type 1a E7 protein (residues 1-88) and write it down. -0.483

Check Human papillomavirus type 1a E7 protein (residues 1-88) data and give composite z-score for CO[C@H]1O[C@H](CO)[C@@H](OC(=O)Nc2ccccc2)[C@H](OC(=O)Nc2ccccc2)[C@@H]1OC(=O)Nc1ccccc1 . 1.25

Send back Human papillomavirus type 1a E7 protein (residues 1-88) composite z-score of COCCOC(=O)N1C(=O)[C@@]2(c3cc(C#CCC(C(=O)OC)C(=O)OC)ccc31)[C@H](c1ccccc1OCCO)N1[C@H](c3ccccc3)[C@H](c3ccccc3)OC(=O)[C@H]1[C@@H]2C(=O)NC[C@H](O)c1ccccc1 only. 1.15

Recall the reported composite z-score of CC1CC/C=C\[C@H]2OC34C=CCN(Cc5ccccc5)C(=O)[C@H]3N(CCCO)C(=O)[C@@H]4C2C(=O)O1 (stereo partly specified) when tested on Human papillomavirus type 1a E7 protein (residues 1-88). -0.67

Give composite z-score; test system Human papillomavirus type 1a E7 protein (residues 1-88); molecule O[C@@H](Cc1ccccc1)[C@H]1C2C=CCCC=C2CN1Cc1cccc(Cl)c1 (stereo partly specified) 1.14

----------
Provide the reported composite z-score of each item.
test: small-molecule microarray binders of probe aCHRDL2, primary screen, biochemical, biotinylated probe, 635/667 nm fluorescence (AID 1100); conditions: higher = more signal
Answer using only a numeral; do not append any unit.

Provide only the value of recorded composite z-score for COC(=O)[C@@]1(Cc2ccccc2)N=C(c2ccc(OCCCO)cc2)O[C@H]1c1ccccc1 0.893

Give me measured composite z-score, please, for this molecule: Cc1ccc(S[C@]2(C(=O)NCCCN(C)C)CC(=O)N(Cc3ccccc3C(F)(F)F)[C@@H]2c2ccc(CO)cc2)cc1 0.95

Determine its reported composite z-score: O=C1C[C@@](C(=O)NCC(F)(F)F)(c2ccc([N+](=O)[O-])cc2)[C@@H](c2ccc(CO)cc2I)N1C1CCCCC1 0.574

Using known records, supply composite z-score for O=C1C[C@@](C(=O)NC2CC2)(c2ccc([N+](=O)[O-])cc2)[C@@H](c2ccc(CO)cc2I)N1C1CCCCC1 -0.0524
